Taken from patent US9845340B2.

biological target: 3T3 cells that over-express human cMet (Homo sapiens, UniProt P08581); construct: expressed in transfected cells; host or cells: 3T3 cells; assay: Whole cell ELISA of peptide-displaying phage; assay type: cell-based; conditions: phage isolate; 3T3 cells expressing human cMet vs. non-expressing 3T3 cells
Sequence (P08581 25-1390): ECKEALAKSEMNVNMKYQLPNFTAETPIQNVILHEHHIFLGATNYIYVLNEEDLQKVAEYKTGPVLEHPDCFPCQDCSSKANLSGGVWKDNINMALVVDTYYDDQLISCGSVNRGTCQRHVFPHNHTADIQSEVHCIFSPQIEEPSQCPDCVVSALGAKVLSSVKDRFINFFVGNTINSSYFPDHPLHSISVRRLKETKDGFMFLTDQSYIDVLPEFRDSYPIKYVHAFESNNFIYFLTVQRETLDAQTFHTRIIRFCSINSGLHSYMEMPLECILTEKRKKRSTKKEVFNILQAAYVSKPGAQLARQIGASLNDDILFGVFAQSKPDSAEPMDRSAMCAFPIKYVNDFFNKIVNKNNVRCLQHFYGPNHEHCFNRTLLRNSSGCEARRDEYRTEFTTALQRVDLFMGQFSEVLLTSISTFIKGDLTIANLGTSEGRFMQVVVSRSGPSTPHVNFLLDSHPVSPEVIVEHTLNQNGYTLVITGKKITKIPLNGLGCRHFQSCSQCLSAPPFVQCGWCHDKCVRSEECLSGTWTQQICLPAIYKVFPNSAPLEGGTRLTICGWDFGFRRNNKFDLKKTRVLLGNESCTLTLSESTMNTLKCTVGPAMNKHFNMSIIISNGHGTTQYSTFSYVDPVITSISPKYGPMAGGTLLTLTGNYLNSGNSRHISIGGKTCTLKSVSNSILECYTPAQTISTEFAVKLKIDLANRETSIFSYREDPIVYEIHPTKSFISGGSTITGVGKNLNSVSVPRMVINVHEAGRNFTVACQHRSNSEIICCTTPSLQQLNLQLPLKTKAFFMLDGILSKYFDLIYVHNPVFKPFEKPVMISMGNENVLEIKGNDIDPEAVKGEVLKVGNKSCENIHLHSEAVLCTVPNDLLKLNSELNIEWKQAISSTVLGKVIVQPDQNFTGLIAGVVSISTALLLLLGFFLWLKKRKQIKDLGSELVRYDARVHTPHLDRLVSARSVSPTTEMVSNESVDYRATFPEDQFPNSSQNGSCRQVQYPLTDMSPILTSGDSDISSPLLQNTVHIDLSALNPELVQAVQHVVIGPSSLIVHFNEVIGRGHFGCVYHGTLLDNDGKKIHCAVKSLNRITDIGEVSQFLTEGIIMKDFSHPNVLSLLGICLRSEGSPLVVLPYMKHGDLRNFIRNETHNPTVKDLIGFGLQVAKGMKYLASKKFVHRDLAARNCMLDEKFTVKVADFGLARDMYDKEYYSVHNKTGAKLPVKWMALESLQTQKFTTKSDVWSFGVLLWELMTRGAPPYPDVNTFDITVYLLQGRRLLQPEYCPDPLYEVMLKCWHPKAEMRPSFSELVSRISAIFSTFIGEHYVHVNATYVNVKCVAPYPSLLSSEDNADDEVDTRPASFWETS
Measurement type: WC ELISA (fold over background)

residue_string="AGKTVCQKWESVCSGMGT (Synthetically generated cMet-binding peptide sequence) [SEQ ID NO: 038]" measurement_type="WC ELISA" units_of_measure="fold over background" value=1.30
residue_string="AQFSGLVMYGRTHEVQWTFGSM (Synthetically generated cMet-binding peptide sequence) [SEQ ID NO: 477]" measurement_type="WC ELISA" units_of_measure="fold over background" value=1.30
residue_string="AGSTDCRGHPTFECWGWGT (Synthetically generated cMet-binding peptide sequence) [SEQ ID NO: 086]" measurement_type="WC ELISA" units_of_measure="fold over background" value=1.30
residue_string="AGYWSCAGPPMFMCTWQGT (Synthetically generated cMet-binding peptide sequence) [SEQ ID NO: 079]" measurement_type="WC ELISA" units_of_measure="fold over background" value=1.27
residue_string="AGVTNCNLSTMFCFLHGT (Synthetically generated cMet-binding peptide sequence) [SEQ ID NO: 026]" measurement_type="WC ELISA" units_of_measure="fold over background" value=1.30
residue_string="AGYFECKGPPTFECWLSGT (Synthetically generated cMet-binding peptide sequence) [SEQ ID NO: 060]" measurement_type="WC ELISA" units_of_measure="fold over background" value=1.43

----------
Target: 3T3 cells that over-express human cMet (Homo sapiens)
Construct: expressed in transfected cells; host or cells: 3T3 cells
Assay: Whole cell ELISA of peptide-displaying phage
Format: cell-based
Settings: phage isolate; 3T3 cells expressing human cMet vs. non-expressing 3T3 cells
Procedure: Whole cell ELISAs were performed using 3T3 cells that over-express human cMet. […] Briefly, 96-well plates were seeded with 10^5 cells per well. The plates were centrifuged for 5 minutes at 1600 rpm to pellet the cells. The resulting cell layer was fixed with 0.1% (v/v) glutaraldehyde for 12 minutes at 37 C. […] The plates were washed with PBST. cMet-binding peptide-displaying phage were detected using an HRP-conjugated anti-M13 antibody.
Reported WC ELISA values are given for each entry in this list.
Measurement type: WC ELISA (fold over background)

residue_string="AQEWQTWTWNMIEVISENKTP (Synthetically generated cMet-binding peptide sequence) [SEQ ID NO: 468]" assayed_system="3T3 cells that over-express human cMet (Homo sapiens)" units_of_measure="fold over background" value=1.40
residue_string="GDNRFCSWVYNVDDWWCVDNDP (Synthetically generated cMet-binding peptide sequence) [SEQ ID NO: 398]" assayed_system="3T3 cells that over-express human cMet (Homo sapiens)" units_of_measure="fold over background" value=1.30
residue_string="GDLLVCKFDDKFWTETCEWADP (Synthetically generated cMet-binding peptide sequence) [SEQ ID NO: 392]" assayed_system="3T3 cells that over-express human cMet (Homo sapiens)" units_of_measure="fold over background" value=1.47
residue_string="GSFILCWWTFCDTNAP (Synthetically generated cMet-binding peptide sequence) [SEQ ID NO: 007]" assayed_system="3T3 cells that over-express human cMet (Homo sapiens)" units_of_measure="fold over background" value=1.30
residue_string="AGETFCSGWPTFECMQWGT (Synthetically generated cMet-binding peptide sequence) [SEQ ID NO: 095]" assayed_system="3T3 cells that over-express human cMet (Homo sapiens)" units_of_measure="fold over background" value=1.23
residue_string="AGPWKCTGPPTFSCIQFGT (Synthetically generated cMet-binding peptide sequence) [SEQ ID NO: 090]" assayed_system="3T3 cells that over-express human cMet (Homo sapiens)" units_of_measure="fold over background" value=1.23
residue_string="AGFVNCKGPPTFECILTGT (Synthetically generated cMet-binding peptide sequence) [SEQ ID NO: 057]" assayed_system="3T3 cells that over-express human cMet (Homo sapiens)" units_of_measure="fold over background" value=1.23
residue_string="GDASMCYDGLALRWDQCWPHDP (Synthetically generated cMet-binding peptide sequence) [SEQ ID NO: 404]" assayed_system="3T3 cells that over-express human cMet (Homo sapiens)" units_of_measure="fold over background" value=1.30
residue_string="AGDWICHGPPMFECEWVGT (Synthetically generated cMet-binding peptide sequence) [SEQ ID NO: 058]" assayed_system="3T3 cells that over-express human cMet (Homo sapiens)" units_of_measure="fold over background" value=1.17
residue_string="AQHVVTLTLIQMPFAFNFEPRM (Synthetically generated cMet-binding peptide sequence) [SEQ ID NO: 484]" assayed_system="3T3 cells that over-express human cMet (Homo sapiens)" units_of_measure="fold over background" value=1.30
residue_string="GSLIFCPYGECMMYAP (Synthetically generated cMet-binding peptide sequence) [SEQ ID NO: 005]" assayed_system="3T3 cells that over-express human cMet (Homo sapiens)" units_of_measure="fold over background" value=1.33
residue_string="GDGFLCRWENGWCEFWDP (Synthetically generated cMet-binding peptide sequence) [SEQ ID NO: 047]" assayed_system="3T3 cells that over-express human cMet (Homo sapiens)" units_of_measure="fold over background" value=1.30
residue_string="GSELFCFYHHQGYEGCDVLAP (Synthetically generated cMet-binding peptide sequence) [SEQ ID NO: 385]" assayed_system="3T3 cells that over-express human cMet (Homo sapiens)" units_of_measure="fold over background" value=1.27
residue_string="AGSYWCSGPPTFMCRYEGT (Synthetically generated cMet-binding peptide sequence) [SEQ ID NO: 085]" assayed_system="3T3 cells that over-express human cMet (Homo sapiens)" units_of_measure="fold over background" value=1.27
residue_string="GSEYSCRTSRCIFSAP (Synthetically generated cMet-binding peptide sequence) [SEQ ID NO: 006]" assayed_system="3T3 cells that over-express human cMet (Homo sapiens)" units_of_measure="fold over background" value=1.33
residue_string="GSHHTCLDGFAGWRCTEVAP (Synthetically generated cMet-binding peptide sequence) [SEQ ID NO: 366]" assayed_system="3T3 cells that over-express human cMet (Homo sapiens)" units_of_measure="fold over background" value=1.33
residue_string="AQWNQWDEFMWFLNPPPIGLMW (Synthetically generated cMet-binding peptide sequence) [SEQ ID NO: 480]" assayed_system="3T3 cells that over-express human cMet (Homo sapiens)" units_of_measure="fold over background" value=1.23
residue_string="GSTMSCWRWGRDAYSCNQMAP (Synthetically generated cMet-binding peptide sequence) [SEQ ID NO: 372]" assayed_system="3T3 cells that over-express human cMet (Homo sapiens)" units_of_measure="fold over background" value=1.37
residue_string="GSRFHCWQGDLMQTYCMPMAP (Synthetically generated cMet-binding peptide sequence) [SEQ ID NO: 376]" assayed_system="3T3 cells that over-express human cMet (Homo sapiens)" units_of_measure="fold over background" value=1.30
residue_string="AGNWICNLSEMRCYPKGT (Synthetically generated cMet-binding peptide sequence) [SEQ ID NO: 013]" assayed_system="3T3 cells that over-express human cMet (Homo sapiens)" units_of_measure="fold over background" value=1.40
residue_string="GSWRFCGGEYSFQVCQDVAP (Synthetically generated cMet-binding peptide sequence) [SEQ ID NO: 365]" assayed_system="3T3 cells that over-express human cMet (Homo sapiens)" units_of_measure="fold over background" value=1.33
residue_string="AGTLSCSEEYKSCQLQGT (Synthetically generated cMet-binding peptide sequence) [SEQ ID NO: 027]" assayed_system="3T3 cells that over-express human cMet (Homo sapiens)" units_of_measure="fold over background" value=1.30
residue_string="AGTVYCSWESSECWWVGT (Synthetically generated cMet-binding peptide sequence) [SEQ ID NO: 019]" assayed_system="3T3 cells that over-express human cMet (Homo sapiens)" units_of_measure="fold over background" value=1.37
residue_string="GSILYCINRNDPQCPYTAP (Synthetically generated cMet-binding peptide sequence) [SEQ ID NO: 101]" assayed_system="3T3 cells that over-express human cMet (Homo sapiens)" units_of_measure="fold over background" value=1.27

----------
target: 3T3 cells that over-express human cMet (Homo sapiens); construct: expressed in transfected cells; host or cells: 3T3 cells; experiment: Whole cell ELISA of peptide-displaying phage; type: cell-based; settings: phage isolate; 3T3 cells expressing human cMet vs. non-expressing 3T3 cells
Catalogue of sequences with associated WC ELISA
Measurement type: WC ELISA (fold over background)

residue_string="GSEFECTGWPEFRCYEYAP (Synthetically generated cMet-binding peptide sequence) [SEQ ID NO: 100]" measurement_type="WC ELISA" value=1.20
residue_string="AQFMYEKEHYVMSISLPGLWFY (Synthetically generated cMet-binding peptide sequence) [SEQ ID NO: 486]" measurement_type="WC ELISA" value=1.63
residue_string="AGYSVCKGYPSFECAFFGT (Synthetically generated cMet-binding peptide sequence) [SEQ ID NO: 075]" measurement_type="WC ELISA" value=1.33
residue_string="AQMYQTPDGVIGKFVDWMFN (Synthetically generated cMet-binding peptide sequence) [SEQ ID NO: 455]" measurement_type="WC ELISA" value=1.33
residue_string="AQAEWVITSEEFYWKMADFGPP (Synthetically generated cMet-binding peptide sequence) [SEQ ID NO: 478]" measurement_type="WC ELISA" value=1.23
residue_string="GDHRKCEISAKTHEVTCYDNDP (Synthetically generated cMet-binding peptide sequence) [SEQ ID NO: 402]" measurement_type="WC ELISA" value=1.17
